Tested on: A549
Experiment: Cytotoxicity against human A549 cells after 48 hrs by MTT assay
Assay type: functional, cell-based
Details: A549, 48 h
Listed below: IC50 values for each entry.
Please state the figure in µM; there is no need to write the unit.

Below, each entry is followed by its recorded IC50 result.
smiles_data=CC1(C)CCC[C@]2(C)[C@@H](CC[C@@](C)(O)/C=C/c3c4ccccc4c(Br)c4ccccc34)[C@](C)(O)CC[C@@H]12 tested_on=A549 metric_name=IC50 uom=µM reading=44.9
smiles_data=CC1(C)CCC[C@]2(C)[C@@H](CC[C@@](C)(O)/C=C/c3ccc(Oc4ccccc4)cc3)[C@](C)(O)CC[C@@H]12 tested_on=A549 metric_name=IC50 uom=µM reading=3.2
smiles_data=Cc1ccc(C)c(/C=C/[C@](C)(O)CC[C@@H]2[C@@]3(C)CCCC(C)(C)[C@@H]3CC[C@@]2(C)O)c1 tested_on=A549 metric_name=IC50 uom=µM reading=3.32
smiles_data=C=C[C@](C)(O)CC[C@@H]1[C@@]2(C)CCCC(C)(C)[C@@H]2CC[C@@]1(C)O tested_on=A549 metric_name=IC50 uom=µM reading=3.21
smiles_data=CC(C)(C)c1ccc(/C=C/[C@](C)(O)CC[C@@H]2[C@@]3(C)CCCC(C)(C)[C@@H]3CC[C@@]2(C)O)cc1 tested_on=A549 metric_name=IC50 uom=µM reading=45

Q: State IC50 (A549) of `CC1(C)CCC[C@]2(C)[C@@H](CC[C@@](C)(O)/C=C/c3cccc([N+](=O)[O-])c3)[C@](C)(O)CC[C@@H]12` .
A: 3.4

Q: Please look at `CC1(C)CCC[C@]2(C)[C@@H](CC[C@@](C)(O)/C=C/c3ccc(F)cc3)[C@](C)(O)CC[C@@H]12` and tell me its recorded IC50 on A549.
A: 3.1

Q: Lab note: record IC50 of `CC1(C)CCC[C@]2(C)[C@@H](CC[C@@](C)(O)/C=C/c3ccc(Cl)nc3)[C@](C)(O)CC[C@@H]12` tested on A549.
A: 3.28
